- targetOrSystem: AtD14 fused to firefly luciferase (D14::LUC) (Arabidopsis thaliana)
- Construct: a pDONOR207 carrying the D14 promoter fused to the D14 CDS; expressed in transfected cells
- Sequence (Q9SQR3 whole entry, the tested form may be a part): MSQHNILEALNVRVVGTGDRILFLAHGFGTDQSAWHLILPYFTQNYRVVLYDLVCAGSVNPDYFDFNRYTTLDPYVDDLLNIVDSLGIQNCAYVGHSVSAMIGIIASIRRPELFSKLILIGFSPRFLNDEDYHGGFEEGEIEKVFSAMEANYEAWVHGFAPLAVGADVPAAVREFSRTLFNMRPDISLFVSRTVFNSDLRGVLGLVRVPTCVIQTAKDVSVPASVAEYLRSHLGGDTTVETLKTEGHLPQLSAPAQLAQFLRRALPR
- measurementNotes: Luminometer (luciferase) assay: D14::LUC degradation in transgenic Arabidopsis seedlings
- Format: in vivo
- conditionLabel: 1 μM, weaker than (+)-GR24
- Description: A binary D14p::D14::LUC vector was obtained by LR-recombination (Invitrogen) of a pDONOR207 carrying the D14 promoter fused to the D14 CDS ([Chevalier et al., 2014]) in pGWB435 ([Nakagawa et al., 2007]). Transgenic D14::D14::LUC Arabidopsis plants were generated by agroinfiltration of Col-0 plants using the floral dip method ([Clough and Bent, 1998]). […] Each treatment was applied to a minimum of 16 wells (seedlings), each of which was measured individually over time. […]

{"molecule": "CC1=CC(O/C=C2/C(=O)c3c(c4cc(-c5scc6c5OCCO6)ccc4n3C)C2C)OC1=O (stereo not shown) [EDOT]", "Activity in the luciferase assay at 1 μM": "significant activity"}
{"molecule": "CC1=C[C@H](O/C=C2/C(=O)O[C@@H]3C4=C(C[C@H]23)[C@@H](O)CCC4(C)C)OC1=O [strigol]", "Activity in the luciferase assay at 1 μM": "significant activity"}
{"molecule": "CC1=CC(O/C=C2/C(=O)c3c(c4cc(-c5ccc(N(C)C)cc5)ccc4n3C)C2C)OC1=O (stereo not shown) [ST23b]", "Activity in the luciferase assay at 1 μM": "significant activity"}
{"molecule": "CC1=CC(O/C=C2\\Cc3c(n(C)c4ccccc34)C2=O)OC1=O (stereo not shown) [EGO10]", "Activity in the luciferase assay at 1 μM": "significant activity"}
